# protocolNotes: in vitro
# conditionNotes: mouse
readout: viability at 10 µM (%)
Unit % implied. Number only.

Need viability at 10 µM of `COc1cc2c(c(OC)c1OC)-c1ccc(OC)c(=O)cc1[C@@H](NC(C)=O)CC2` , thanks.
114

* * *

Items are presented alongside their recorded viability at 10 µM.
# protocolNotes: Cell viability assay (EZ-Cytox)
# conditionNotes: mouse, BV-2 microglial cells
Write the numeric value and append its unit.

molecule: COC(=O)Nc1nc2ccc(C(=O)c3cccs3)cc2[nH]1 [Nocodazole, reference compound]
readout: viability at 10 µM
measurement: 93.8%

molecule: COc1ccc2c(c1O)OC(C)(C)C=C2c1ccc(Cl)cc1C [Compound 1]
readout: viability at 10 µM
measurement: 102%

Next up:
Need viability at 10 µM of COc1ccc2c(c1O)OC(C)(C)C=C2c1cccc2c1oc1ccccc12 [Compound 8] , thanks.
108%
